Values were extracted from the supplement of paper PMC7125110.

B1: glmS ribozyme (parent)
chain: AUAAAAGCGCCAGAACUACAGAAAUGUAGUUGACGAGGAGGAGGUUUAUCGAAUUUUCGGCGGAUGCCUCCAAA

Variants of: B1
Assay: self-cleavage kobs at 2500 uM GlcN6P; higher = faster cleavage; RNA array
Conditions: with glucosamine-6-phosphate
Variants at the floor of the assay were thinned out.
Reported self-cleavage kobs at 2500 uM GlcN6P values follow for various variants

QUERY: // lookup self-cleavage kobs at 2500 uM GlcN6P for AUAAAAGCGCUAGAACUACAGAAAUGUAUUUGACGAGGAGGAGGUUUAUCGAAUUUUCGGCGGAUGGCUCCAAA [C11U G29U C67G]
RESULT: 0.000197 s⁻¹

QUERY: Give the measured self-cleavage kobs at 2500 uM GlcN6P of AUAAAAGCGCCAGAACUACAGAAAUGUAGUUGACGAGGAGGAGGUUUAUCGAAUUUUCGGCGGAAAGCUCUAAA [U65A G66A C67G C71U] .
RESULT: 8.49e-05 s⁻¹

QUERY: What value of self-cleavage kobs at 2500 uM GlcN6P has been recorded for this entry: AUAAAUGCGACAGAACUACAGAAAUGUAGUUGACGAGGAGGAGGUUUAUCGAAUUUUCGGCGGAUGCCUACAAA [A6U C10A C70A]
RESULT: 0.000332 s⁻¹

QUERY: Given the entry AUAAAAGCGGCAGUACUACAGAAAUGUACUUGACGAGGAGGAGGUUUAACGGAUUUUCGGCGGAUGGCUCCAAA [C10G A14U G29C U49A A52G C67G] , report its measured self-cleavage kobs at 2500 uM GlcN6P.
RESULT: 7.89e-05 s⁻¹

QUERY: So what's the measured self-cleavage kobs at 2500 uM GlcN6P for this one? AUAAAAGCGCCAGAACUACAGAAAUGUAGUUGACGAGGAGGGGGUUUAUCAUAUUUUCGGCGGAUGCCUCCAAA [A42G G51A A52U]
RESULT: < 1e-05 s⁻¹
